From: ChEMBL document CHEMBL6127102

# System: MDA-MB-468
# assay.details: Antitumor activity against human MDA-MB-468 cells harboring wild-type BRCA incubated for 72 hrs by MTT assay
# Type: functional, cell-based
# experimental.context: MDA-MB-468, 72 h
parameter: pIC50
One number for each entry, as −log10 of the molar value.

For orientation, consider the following solved cases.
COc1cc(OC)c(/C=C/S(=O)(=O)Cc2ccc(OC)c(NCCCCCC(=O)N3CCN(C(=O)c4cc(Cc5n[nH]c(=O)c6ccccc56)ccc4F)CC3)c2)c(OC)c1
5.34
COc1cc(OC)c(/C=C/S(=O)(=O)Cc2ccc(OC)c(NCCCC(=O)N3CCN(C(=O)c4cc(Cc5n[nH]c(=O)c6ccccc56)ccc4F)CC3)c2)c(OC)c1
5.91
COc1cc(OC)c(/C=C/S(=O)(=O)Cc2ccc(OC)c(NCCCC(=O)O)c2)c(OC)c1
5.63
COc1cc(OC)c(/C=C/S(=O)(=O)Cc2ccc(OC)c(NCC(=O)O)c2)c(OC)c1
6.35

# map each molecule to its pIC50
1. COc1cc(OC)c(/C=C/S(=O)(=O)Cc2ccc(OC)c(NC(=O)CCC(=O)N3CCN(C(=O)c4cc(Cc5n[nH]c(=O)c6ccccc56)ccc4F)CC3)c2)c(OC)c1
2. O=C(c1cc(Cc2n[nH]c(=O)c3ccccc23)ccc1F)N1CCNCC1
3. COc1cc(OC)c(/C=C/S(=O)(=O)Cc2ccc(OC)c(NC(=O)CCCCC(=O)N3CCN(C(=O)c4cc(Cc5n[nH]c(=O)c6ccccc56)ccc4F)CC3)c2)c(OC)c1
4. COc1cc(OC)c(/C=C/S(=O)(=O)Cc2ccc(OC)c(NC(=O)CCC(=O)O)c2)c(OC)c1
5. O=C(c1cc(Cc2n[nH]c(=O)c3ccccc23)ccc1F)N1CCN(C(=O)C2CC2)CC1
6. COc1cc(OC)c(/C=C/S(=O)(=O)Cc2ccc(OC)c(NCC(=O)N3CCN(C(=O)c4cc(Cc5n[nH]c(=O)c6ccccc56)ccc4F)CC3)c2)c(OC)c1
7. COc1cc(OC)c(/C=C/S(=O)(=O)Cc2ccc(OC)c(NC(=O)CCCC(=O)N3CCN(C(=O)c4cc(Cc5n[nH]c(=O)c6ccccc56)ccc4F)CC3)c2)c(OC)c1
8. COc1cc(OC)c(/C=C/S(=O)(=O)Cc2ccc(OC)c(NC(=O)CCCCC(=O)O)c2)c(OC)c1

1: 5.53; 2: 4.91; 3: 5.31; 4: 5.50; 5: 4.83; 6: 5.86; 7: 5.44; 8: 5.16

# map each molecule to its pIC50
1. COc1cc(OC)c(/C=C/S(=O)(=O)Cc2ccc(OC)c(NC(=O)CCCC(=O)O)c2)c(OC)c1
2. COc1cc(OC)c(/C=C/S(=O)(=O)Cc2ccc(OC)c(NCCCCCC(=O)O)c2)c(OC)c1

1. 5.24
2. 5.27

====

So I've got a bunch of compounds here, and I need their IC50 values.
# Test system: HCC1937
# assay.details: Antitumor activity against BRCA 1-deficient human HCC1937 cells incubated for 72 hrs by MTT assay
# Assay type: functional, cell-based
# experimental.context: HCC1937, 72 h
One number for each entry, in nM.

For orientation, consider the following solved cases.
COc1cc(OC)c(/C=C/S(=O)(=O)Cc2ccc(OC)c(NCCCCCC(=O)N3CCN(C(=O)c4cc(Cc5n[nH]c(=O)c6ccccc56)ccc4F)CC3)c2)c(OC)c1
3120
COc1cc(OC)c(/C=C/S(=O)(=O)Cc2ccc(OC)c(NC(=O)CCCCC(=O)N3CCN(C(=O)c4cc(Cc5n[nH]c(=O)c6ccccc56)ccc4F)CC3)c2)c(OC)c1
3690
COc1cc(OC)c(/C=C/S(=O)(=O)Cc2ccc(OC)c(NC(=O)CCCC(=O)N3CCN(C(=O)c4cc(Cc5n[nH]c(=O)c6ccccc56)ccc4F)CC3)c2)c(OC)c1
2010
COc1cc(OC)c(/C=C/S(=O)(=O)Cc2ccc(OC)c(NCCCCCC(=O)O)c2)c(OC)c1
4760
COc1cc(OC)c(/C=C/S(=O)(=O)Cc2ccc(OC)c(NC(=O)CCCC(=O)O)c2)c(OC)c1
3920
O=C(c1cc(Cc2n[nH]c(=O)c3ccccc23)ccc1F)N1CCNCC1
3210
COc1cc(OC)c(/C=C/S(=O)(=O)Cc2ccc(OC)c(NCCCC(=O)N3CCN(C(=O)c4cc(Cc5n[nH]c(=O)c6ccccc56)ccc4F)CC3)c2)c(OC)c1
1170
COc1cc(OC)c(/C=C/S(=O)(=O)Cc2ccc(OC)c(NC(=O)CCC(=O)N3CCN(C(=O)c4cc(Cc5n[nH]c(=O)c6ccccc56)ccc4F)CC3)c2)c(OC)c1
1270

# map each compound to its IC50
1. COc1cc(OC)c(/C=C/S(=O)(=O)Cc2ccc(OC)c(NCC(=O)N3CCN(C(=O)c4cc(Cc5n[nH]c(=O)c6ccccc56)ccc4F)CC3)c2)c(OC)c1
2. COc1cc(OC)c(/C=C/S(=O)(=O)Cc2ccc(OC)c(NC(=O)CCC(=O)O)c2)c(OC)c1

1: 1990; 2: 2170
